Hey, just so you know, these numbers are from patent US6008196A.

- target of assay: Human Neutrophil Elastase (Homo sapiens)
- Construct: Enzyme is purified from human sputum, although recently it has become commercially available
- Sequence (P08246 30-247 limits assumed): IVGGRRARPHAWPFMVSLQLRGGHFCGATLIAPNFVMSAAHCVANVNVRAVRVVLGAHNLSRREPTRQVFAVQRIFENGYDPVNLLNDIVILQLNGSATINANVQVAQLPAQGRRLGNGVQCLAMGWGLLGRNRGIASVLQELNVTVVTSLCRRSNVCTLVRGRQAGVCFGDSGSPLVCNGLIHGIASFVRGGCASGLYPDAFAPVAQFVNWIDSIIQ
- assay remarks: Human neutrophil elastase assayed in vitro with N-MeOSuc-Ala-Ala-Pro-Val-p-nitroanilide as substrate
- recorded conditions: enzyme purified from human sputum
- Experimental: Human neutrophil elastase is assayed in vitro using N-MeOSuc-Ala-Ala-Pro-Val-p-nitroanilide, available commercially, as substrate. […] Enzyme is purified from human sputum, although recently it has become commercially available. Kinetic characterization of immediate inhibitors is by means of the Dixon plot, whereas the characterization of slow- and/or tight-binding inhibitors used data analysis techniques reviewed by Williams and Morrison. […]
What pKi was measured for each of the following?
In simple prose, pKi is minus the logarithm base ten of a concentration in moles per litre.

Incoming: Requested read-out: pKi. Entry: CC(C)C(NC(=O)[C@@H]1CCCN1C(=O)[C@@H](NC(=O)OC(C)(C)C)C(C)C)C(=O)C(F)(F)C(F)(F)C(F)(F)F (stereo partly drawn) [Boc--Val--Pro--Val--CF2 CF2 CF3]
Outgoing: 6.31

Incoming: Suppose we examine the molecule CC(C)C(NC(=O)[C@@H]1CCCN1C(=O)[C@@H](NC(=O)c1ccc(C(=O)N2CCOCC2)cc1)C(C)C)C(=O)C(F)(F)C(F)(F)C(F)(F)F (stereo partly drawn) [MCBz--Val--Pro--Val--CF2 CF2 CF3] ; what pKi value has been reported?
Outgoing: 7.74

Incoming: Form field: reported pKi of CC(C)C(NC(=O)[C@@H]1CCCN1C(=O)[C@@H](NC(=O)OC(C)(C)C)C(C)C)C(=O)C(F)(F)C(F)(F)C(F)(F)C(F)(F)F (stereo partly drawn) [Boc--Val--Pro--Val--CF2 CF2 CF2 CF3]
Outgoing: 6.23
